The following sequences are shown together with reported total protein half-life in vivo values.
Assay: total protein half-life in vivo (active degradation + dilution); higher = more stable protein
Settings: wild type E. coli NCM3722; growth: C-lim chemostat; doubling time 3 h
Please state the figure in h; there is no need to write the unit.

Known total protein half-life in vivo results, listed for orientation:
ordered_residues | total protein half-life in vivo, h
MSALFLAIPLTIFVLFVLPIWLWLHYSNRSGRSELSQSEQQRLAQLADEAKRMRERIQALESILDAEHPNWRDR [P0AFM9] | 2.84
MDFSLTEEQELLLASIRELITTNFPEEYFRTCDQNGTYPREFMRALADNGISMLGVPEEFGGIPADYVTQMLALMEVSKCGAPAFLITNGQCIHSMRRFGSAEQLRKTAESTLETGDPAYALALTEPGAGSDNNSATTTYTRKNGKVYINGQKTFITGAKEYPYMLVLARDPQPKDPKKAFTLWWVDSSKPGIKINPLHKIGWHMLSTCEVYLDNVEVEESDMVGEEGMGFLNVMYNFEMERLINAARSTGFAECAFEDAARYANQRIAFGKPIGHNQMIQEKLALMAIKIDNMRNMVLKVAWQADQHQSLRTSAALAKLYCARTAMEVIDDAIQIMGGLGYTDEARVSRFWRDVRCERIGGGTDEIMIYVAGRQILKDYQNK [P0A9U8] | 2.23
MIVAFCLYKYFPFGGLQRDFMRIASTVAARGHHVRVYTQSWEGDCPKAFELIQVPVKSHTNHGRNAEYYAWVQNHLKEHPADRVVGFNKMPGLDVYFAADVCYAEKVAQEKGFLYRLTSRYRHYAAFERATFEQGKSTKLMMLTDKQIADFQKHYQTEPERFQILPPGIYPDRKYSEQIPNSREIYRQKNGIKEQQNLLLQVGSDFGRKGVDRSIEALASLPESLRHNTLLFVVGQDKPRKFEALAEKLGVRSNVHFFSGRNDVSELMAAADLLLHPAYQEAAGIVLLEAITAGLPVLTTAVCGYAHYIADANCGTVIAEPFSQEQLNEVLRKALTQSPLRMAWAENARHYADTQDLYSLPEKAADIITGGLDG | 3.12

Consider the record given below.
Given item MDIVFIEQLSVITTIGVYDWEQTIEQKLVFDIEMAWDNRKAAKSDDVADCLSYADIAETVVSHVEGARFALVERVAEEVAELLLARFNSPWVRIKLSKPGAVARAANVGVIIERGNNLKENN [P0AC16] , the value recorded as its total protein half-life in vivo is 3.26

###

Test: total protein half-life in vivo (active degradation + dilution); higher = more stable protein
Details: wild type E. coli NCM3722; growth: C-lim chemostat; doubling time 3 h
The following sequences are shown together with reported total protein half-life in vivo values.
Please state the figure in h; there is no need to write the unit.

Known total protein half-life in vivo results, listed for orientation:
ordered_residues | measured_parameter | recorded_value
MSSNTFTLGTKSVNRLGYGAMQLAGPGVFGPPRDRHVAITVLREALALGVNHIDTSDFYGPHVTNQIIREALYPYSDDLTIVTKIGARRGEDASWLPAFSPAELQKAVHDNLRNLGLDVLDVVNLRVMMGDGHGPAEGSIEASLTVLAEMQQQGLVKHIGLSNVTPTQVAEARKIAEIVCVQNEYNIAHRADDAMIDALAHDGIAYVPFFPLGGFTPLQSSTLSDVAASLGATPMQVALAWLLQRSPNILLIPGTSSVAHLRENMAAEKLHLSEEVLSTLDGISRE | total protein half-life in vivo | 3.27
MIRSMTAYARREIKGEWGSATWEMRSVNQRYLETYFRLPEQFRSLEPVVRERIRSRLTRGKVECTLRYEPDVSAQGELILNEKLAKQLVTAANWVKMQSDEGEINPVDILRWPGVMAAQEQDLDAIAAEILAALDGTLDDFIVARETEGQALKALIEQRLEGVTAEVVKVRSHMPEILQWQRERLVAKLEDAQVQLENNRLEQELVLLAQRIDVAEELDRLEAHVKETYNILKKKEAVGRRLDFMMQEFNRESNTLASKSINAEVTNSAIELKVLIEQMREQIQNIE | total protein half-life in vivo | 3.2

Consider the record given below.
Given item MPLHNLTRFPRLEFIGAPTPLEYLPRFSDYLGREIFIKRDDVTPMAMGGNKLRKLEFLAADALREGADTLITAGAIQSNHVRQTAAVAAKLGLHCVALLENPIGTTAENYLTNGNRLLLDLFNTQIEMCDALTDPNAQLEELATRVEAQGFRPYVIPVGGSNALGALGYVESALEIAQQCEGAVNISSVVVASGSAGTHAGLAVGLEHLMPESELIGVTVSRSVADQLPKVVNLQQAIAKELELTASAEILLWDDYFAPGYGVPNDEGMEAVKLLARLEGILLDPVYTGKAMAGLIDGISQKRFKDEGPILFIHTGGAPALFAYHPHV , the value recorded as its total protein half-life in vivo is 3.17
